These data points were gathered from PubChem BioAssay AID2060882.

Tested on: 898857-211-R-J1-PDC complex spheroids, growth % test/control
Test summary: Anticancer human tumor 898857-211-R-J1-PDC patient-derived melanoma cell line growth inhibition [RAS]; active = viability on the fitted dose curve at most 10% of control; inactive = the rest
Condition summary: second compound 10 µM; first compound 3.16 µM
Possible outcomes: active, inactive

Molecule	Assigned class
CC(C)NCC(C(=O)N1CCN(c2ncnc3c2C(C)CC3O)CC1)c1ccc(Cl)cc1 (stereo unspecified) + C#Cc1c(F)ccc2cc(O)cc(-c3ncc4c(N5CC6CCC(C5)N6)nc(OCC56CCCN5CC(F)C6)nc4c3F)c12	inactive
NC1c2ccccc2OC12CCN(c1cnc3c(N4CCCc5ncccc54)n[nH]c3n1)CC2 (stereo unspecified) + C#Cc1c(F)ccc2cc(O)cc(-c3ncc4c(N5CC6CCC(C5)N6)nc(OCC56CCCN5CC(F)C6)nc4c3F)c12	active
Cc1nc(N2CCC3(CC2)COC(C)C3N)c(CO)nc1Sc1ccnc(N)c1Cl (stereo unspecified) + C#Cc1c(F)ccc2cc(O)cc(-c3ncc4c(N5CC6CCC(C5)N6)nc(OCC56CCCN5CC(F)C6)nc4c3F)c12	inactive
C[C@@H](NC(=O)c1ncnc(N)c1Cl)c1ncc(C(=O)Nc2cc(C(F)(F)F)c(Cl)cn2)s1 + C#Cc1c(F)ccc2cc(O)cc(-c3ncc4c(N5CC6CCC(C5)N6)nc(OCC56CCCN5CC(F)C6)nc4c3F)c12	inactive
CCC(CC)c1cc(NC2CCC(N)C2)n2nccc2n1 (stereo unspecified) + C#Cc1c(F)ccc2cc(O)cc(-c3ncc4c(N5CC6CCC(C5)N6)nc(OCC56CCCN5CC(F)C6)nc4c3F)c12	active
CC(Nc1ccc2c(c1)OCCn1cc(N3C(=O)OCC3C(F)F)nc1-2)C(N)=O (stereo unspecified) + C#Cc1c(F)ccc2cc(O)cc(-c3ncc4c(N5CC6CCC(C5)N6)nc(OCC56CCCN5CC(F)C6)nc4c3F)c12	inactive

---

System: 898857-211-R-J1-PDC complex spheroids, growth % test/control
Test summary: Anticancer human tumor 898857-211-R-J1-PDC cell line growth inhibition [RAS];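 note: spheroids exposed to compound for seven days before readout; 100% = DMSO vehicle control wells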
Condition summary: second compound 0.3 µM; first compound 0.316 µM; hits give low values
Measured viability, T/C, listed per entry for reference.
Observed property: viability, T/C (%)

Compound	U	Experimental result
NC1c2ccccc2OC12CCN(c1cnc3c(N4CCCc5ncccc54)n[nH]c3n1)CC2 (stereo not drawn) + CCn1c(-c2cc(N3CCN(C)CC3)cnc2C(C)OC)c2c3cc(ccc31)-c1csc(n1)CC(NC(=O)C1CC1C)C(=O)N1CCCC(N1)C(=O)OCC(C)(C)C2	%	81.3
C[C@@H](NC(=O)c1ncnc(N)c1Cl)c1ncc(C(=O)Nc2cc(C(F)(F)F)c(Cl)cn2)s1 + CCn1c(-c2cc(N3CCN(C)CC3)cnc2C(C)OC)c2c3cc(ccc31)-c1csc(n1)CC(NC(=O)C1CC1C)C(=O)N1CCCC(N1)C(=O)OCC(C)(C)C2	%	65.9
CC(C)NCC(C(=O)N1CCN(c2ncnc3c2C(C)CC3O)CC1)c1ccc(Cl)cc1 (stereo not drawn) + CCn1c(-c2cc(N3CCN(C)CC3)cnc2C(C)OC)c2c3cc(ccc31)-c1csc(n1)CC(NC(=O)C1CC1C)C(=O)N1CCCC(N1)C(=O)OCC(C)(C)C2	%	86.2
CC(=O)OC12COC1CC(O)C1(C)C(=O)C(O)C3=C(C)C(OC(=O)C(O)C(NC(=O)OC(C)(C)C)c4ccccc4)CC(O)(C(OC(=O)c4ccccc4)C21)C3(C)C (stereo not drawn) + CCn1c(-c2cc(N3CCN(C)CC3)cnc2C(C)OC)c2c3cc(ccc31)-c1csc(n1)CC(NC(=O)C1CC1C)C(=O)N1CCCC(N1)C(=O)OCC(C)(C)C2	%	11.8
Nc1ccn(C2OC(CO)C(O)C2(F)F)c(=O)n1 (stereo not drawn) + CCn1c(-c2cc(N3CCN(C)CC3)cnc2C(C)OC)c2c3cc(ccc31)-c1csc(n1)CC(NC(=O)C1CC1C)C(=O)N1CCCC(N1)C(=O)OCC(C)(C)C2	%	4.58
CCN1CCN(Cc2ccc(Nc3ncc(F)c(-c4cc(F)c5nc(C)n(C(C)C)c5c4)n3)nc2)CC1 + CCn1c(-c2cc(N3CCN(C)CC3)cnc2C(C)OC)c2c3cc(ccc31)-c1csc(n1)CC(NC(=O)C1CC1C)C(=O)N1CCCC(N1)C(=O)OCC(C)(C)C2	%	48.5
CC1(O)CCCC1n1c(=O)c(C(F)F)cc2cnc(NC3CCN(S(C)(=O)=O)CC3)nc21 (stereo not drawn) + CCn1c(-c2cc(N3CCN(C)CC3)cnc2C(C)OC)c2c3cc(ccc31)-c1csc(n1)CC(NC(=O)C1CC1C)C(=O)N1CCCC(N1)C(=O)OCC(C)(C)C2	%	33.6
Nc1ccn(C2OC(CO)C(O)C2(F)F)c(=O)n1 (stereo not drawn) + CCn1c(-c2cccnc2C(C)OC)c2c3cc(ccc31)N1CCOC(CC(NC(=O)C(C(C)C)N(C)C(=O)C3(F)CCN(C(=O)C#CC(C)(C)N(C)C)CC3)C(=O)N3CCCC(N3)C(=O)OCC(C)(C)C2)C1	%	3.62

---

System: 898857-211-R-J1-PDC complex spheroids, growth % test/control
Test summary: Anticancer human tumor 898857-211-R-J1-PDC cell line growth inhibition [RAS];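 note: spheroids exposed to compound for seven days before readout; 100% = DMSO vehicle control wells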
Condition summary: second compound 0.003 µM; first compound 0.316 µM; hits give low values

Compound	viability, T/C / %
O=C(c1ccc(F)c(F)c1Nc1ccc(I)cc1F)N1CC(O)([C@@H]2CCCCN2)C1 + CCn1c(-c2cccnc2C(C)OC)c2c3cc(ccc31)N1CCOC(CC(NC(=O)C(C(C)C)N(C)C(=O)C3(F)CCN(C(=O)C#CC(C)(C)N(C)C)CC3)C(=O)N3CCCC(N3)C(=O)OCC(C)(C)C2)C1	15.9
CC(Nc1ccc2c(c1)OCCn1cc(N3C(=O)OCC3C(F)F)nc1-2)C(N)=O (stereo not given) + CCn1c(-c2cccnc2C(C)OC)c2c3cc(ccc31)N1CCOC(CC(NC(=O)C(C(C)C)N(C)C(=O)C3(F)CCN(C(=O)C#CC(C)(C)N(C)C)CC3)C(=O)N3CCCC(N3)C(=O)OCC(C)(C)C2)C1	97.4
CCN1CCN(Cc2ccc(Nc3ncc(F)c(-c4cc(F)c5nc(C)n(C(C)C)c5c4)n3)nc2)CC1 + CCn1c(-c2cc(N3CCN(C)CC3)cnc2C(C)OC)c2c3cc(ccc31)-c1csc(n1)CC(NC(=O)C1CC1C)C(=O)N1CCCC(N1)C(=O)OCC(C)(C)C2	47.7
NC1c2ccccc2OC12CCN(c1cnc3c(N4CCCc5ncccc54)n[nH]c3n1)CC2 (stereo not given) + CCn1c(-c2cc(N3CCN(C)CC3)cnc2C(C)OC)c2c3cc(ccc31)-c1csc(n1)CC(NC(=O)C1CC1C)C(=O)N1CCCC(N1)C(=O)OCC(C)(C)C2	101
CC(=O)OC12COC1CC(O)C1(C)C(=O)C(O)C3=C(C)C(OC(=O)C(O)C(NC(=O)OC(C)(C)C)c4ccccc4)CC(O)(C(OC(=O)c4ccccc4)C21)C3(C)C (stereo not given) + CCn1c(-c2cc(N3CCN(C)CC3)cnc2C(C)OC)c2c3cc(ccc31)-c1csc(n1)CC(NC(=O)C1CC1C)C(=O)N1CCCC(N1)C(=O)OCC(C)(C)C2	9.53
Cc1nc(N2CCC3(CC2)COC(C)C3N)c(CO)nc1Sc1ccnc(N)c1Cl (stereo not given) + CCn1c(-c2cc(N3CCN(C)CC3)cnc2C(C)OC)c2c3cc(ccc31)-c1csc(n1)CC(NC(=O)C1CC1C)C(=O)N1CCCC(N1)C(=O)OCC(C)(C)C2	105
Cc1nc(N2CCC3(CC2)COC(C)C3N)c(CO)nc1Sc1ccnc(N)c1Cl (stereo not given) + CCn1c(-c2cccnc2C(C)OC)c2c3cc(ccc31)N1CCOC(CC(NC(=O)C(C(C)C)N(C)C(=O)C3(F)CCN(C(=O)C#CC(C)(C)N(C)C)CC3)C(=O)N3CCCC(N3)C(=O)OCC(C)(C)C2)C1	97.6
Nc1ccn(C2OC(CO)C(O)C2(F)F)c(=O)n1 (stereo not given) + CCn1c(-c2cc(N3CCN(C)CC3)cnc2C(C)OC)c2c3cc(ccc31)-c1csc(n1)CC(NC(=O)C1CC1C)C(=O)N1CCCC(N1)C(=O)OCC(C)(C)C2	5.71
C=CC(=O)Nc1cc(Nc2nccc(-c3cn(C)c4ccccc34)n2)c(OC)cc1N(C)CCN(C)C + CCn1c(-c2cc(N3CCN(C)CC3)cnc2C(C)OC)c2c3cc(ccc31)-c1csc(n1)CC(NC(=O)C1CC1C)C(=O)N1CCCC(N1)C(=O)OCC(C)(C)C2	52.4
O=C(c1ccc(F)c(F)c1Nc1ccc(I)cc1F)N1CC(O)([C@@H]2CCCCN2)C1 + CCn1c(-c2cc(N3CCN(C)CC3)cnc2C(C)OC)c2c3cc(ccc31)-c1csc(n1)CC(NC(=O)C1CC1C)C(=O)N1CCCC(N1)C(=O)OCC(C)(C)C2	10.3
C=CC(=O)Nc1cc(Nc2nccc(-c3cn(C)c4ccccc34)n2)c(OC)cc1N(C)CCN(C)C + CCn1c(-c2cccnc2C(C)OC)c2c3cc(ccc31)N1CCOC(CC(NC(=O)C(C(C)C)N(C)C(=O)C3(F)CCN(C(=O)C#CC(C)(C)N(C)C)CC3)C(=O)N3CCCC(N3)C(=O)OCC(C)(C)C2)C1	94.1
NC1c2ccccc2OC12CCN(c1cnc3c(N4CCCc5ncccc54)n[nH]c3n1)CC2 (stereo not given) + CCn1c(-c2cccnc2C(C)OC)c2c3cc(ccc31)N1CCOC(CC(NC(=O)C(C(C)C)N(C)C(=O)C3(F)CCN(C(=O)C#CC(C)(C)N(C)C)CC3)C(=O)N3CCCC(N3)C(=O)OCC(C)(C)C2)C1	90.4
CC(C)NCC(C(=O)N1CCN(c2ncnc3c2C(C)CC3O)CC1)c1ccc(Cl)cc1 (stereo not given) + CCn1c(-c2cc(N3CCN(C)CC3)cnc2C(C)OC)c2c3cc(ccc31)-c1csc(n1)CC(NC(=O)C1CC1C)C(=O)N1CCCC(N1)C(=O)OCC(C)(C)C2	93.5
CC(Nc1ccc2c(c1)OCCn1cc(N3C(=O)OCC3C(F)F)nc1-2)C(N)=O (stereo not given) + CCn1c(-c2cc(N3CCN(C)CC3)cnc2C(C)OC)c2c3cc(ccc31)-c1csc(n1)CC(NC(=O)C1CC1C)C(=O)N1CCCC(N1)C(=O)OCC(C)(C)C2	83.6
CC1(O)CCCC1n1c(=O)c(C(F)F)cc2cnc(NC3CCN(S(C)(=O)=O)CC3)nc21 (stereo not given) + CCn1c(-c2cc(N3CCN(C)CC3)cnc2C(C)OC)c2c3cc(ccc31)-c1csc(n1)CC(NC(=O)C1CC1C)C(=O)N1CCCC(N1)C(=O)OCC(C)(C)C2	33.5
